target: Transient receptor potential cation channel subfamily V member 1 (Homo sapiens, UniProt Q8NER1); assay: Ca2+ Influx Functional Assay for the Determination of in Vitro Activity.; settings: pH 7.4; 22 °C
Sequence (Q8NER1 whole entry): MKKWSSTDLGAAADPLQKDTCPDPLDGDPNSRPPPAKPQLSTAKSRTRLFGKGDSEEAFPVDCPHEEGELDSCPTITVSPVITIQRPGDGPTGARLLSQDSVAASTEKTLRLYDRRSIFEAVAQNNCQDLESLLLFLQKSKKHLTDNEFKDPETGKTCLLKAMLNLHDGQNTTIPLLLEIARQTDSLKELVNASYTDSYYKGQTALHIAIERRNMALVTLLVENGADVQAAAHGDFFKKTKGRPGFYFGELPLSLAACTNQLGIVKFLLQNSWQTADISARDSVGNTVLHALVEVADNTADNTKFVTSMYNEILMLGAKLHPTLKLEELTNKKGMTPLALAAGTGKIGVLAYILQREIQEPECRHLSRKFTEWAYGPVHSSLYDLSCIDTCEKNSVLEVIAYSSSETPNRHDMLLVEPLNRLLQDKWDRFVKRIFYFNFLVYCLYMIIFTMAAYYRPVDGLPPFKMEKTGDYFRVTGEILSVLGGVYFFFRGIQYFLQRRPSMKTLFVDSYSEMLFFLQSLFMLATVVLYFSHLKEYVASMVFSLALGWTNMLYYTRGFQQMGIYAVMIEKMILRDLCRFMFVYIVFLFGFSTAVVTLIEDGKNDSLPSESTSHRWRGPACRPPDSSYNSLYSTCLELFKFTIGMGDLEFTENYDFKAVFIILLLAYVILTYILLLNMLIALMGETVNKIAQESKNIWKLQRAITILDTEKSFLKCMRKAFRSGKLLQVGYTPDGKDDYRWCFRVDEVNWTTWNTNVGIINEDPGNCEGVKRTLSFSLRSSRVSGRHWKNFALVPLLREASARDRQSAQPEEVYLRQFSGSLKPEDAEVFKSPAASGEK
pEC50: −log10 of the molar value.
measurement_name: pEC50

Consider the worked cases shown below.
{"structure_string": "CSc1cccc(NC(=O)Nc2cccc3ccc(O)cc23)c1", "pEC50": 7.66}
{"structure_string": "O=C(NCc1cccc(C(F)(F)F)c1)Nc1cccc2cnccc12", "pEC50": 7.29}
{"structure_string": "O=C(NCCc1cccc(C(F)(F)F)c1)Nc1cccc2cnccc12", "pEC50": 7.70}

A. O=C(NCc1ccc(C(F)(F)F)cc1)Nc1cccc2cnccc12
B. O=C(NCCc1ccc(C(F)(F)F)cc1)Nc1cccc2cnccc12
**Query** // which entry reports the smaller pEC50, A or B ? Could you answer with the label of the item you picked?
**Result** B
